System Tested: monomeric alpha-synuclein, P37840
Assay Method Text: SPR, captured mAb
Reported Conditions: remark: other sources report otherwise
Endpoint Name: pKd
To interpret pKd, take it as minus log10 of a concentration measured in moles per litre.

Examples from the recorded data:
>>> recorded_result("ACI-7079-2507B3-Ab1 (antibody, V domains shown) VH: EVQLVESGGGLVQPKGSLKVSCAASGFTFKTYAMHWVRQAPGKGLEWVARIRSENSNFAKYYADSVKDRFTISRDDSQSMLYLQMHTLKTEDTAIYYCVRGYNGSSLDYWGQGTTLTVSS VL: QIVLTQSPAIMSAFPGERVTMTCSASSSVNYMHWYQQKSGTSPKRWIYDTSKLASGVPARFSGGGSGTSYSLTISNMEAEDAATYYCQQWRSNPPTFGGGTKLEIK")
8.59
>>> recorded_result("ACI-7079-2605B3-Ab2 (antibody, V domains shown) VH: EVQLVESGGGLVQPKGSLKLSCAASGFIFKTYAMHWVRQAPGKGLEWVARIRSKGGNYATYFADSVKDRFTISRDDSQNMLYLQVNNLKIEDTAMYFCVRGGNYSWFAYWGQGTLVTVSA VL: QIVLTQSPAIMSASPGEKVTMTCSASSSVTYMHWYQQKSGTSPKRWIYDTSQLASGVPARFSGSGSGTSHSLTISSMETEDAATYYCQQWTRNPPTFGGGTKLAIK")
8.41
>>> recorded_result("ACI-7067-1112H8-Ab2 (antibody, V domains shown) VH: EVKLEESGGGLVQPGGSMKLSCAASGFTFTDAWMNWVRQSPEKGLEWIAEIRNKAHNYATYYAESVKGRFDISGDDSKSSVYLQMNNLRVEDTGIYYCTIYSYWGPGTLVTVSA VL: SIVMTQTPKFLLMSPGDRVTMTCTASQSVSNYVAWYQQKPGQSPKLLIYSASNRFTGVPDRFTGSGYGTDFTFTINTVQTEDMAVYFCQQDYTSPYTFGGGTKLEIK")
8.20
>>> recorded_result("ACI-7079-2501D10-Ab1 (antibody, V domains shown) VH: EVQLVESGGGLVQPKGSLKVSCAASGFTFKTYAMHWVRQAPGKGLEWVARIRSENSNFAKYYADSVKDRFTISRDDSQSMLYLQMNNLKTEDTAMYYCVRGYNGSSLDYWGQGTTLTVSS VL: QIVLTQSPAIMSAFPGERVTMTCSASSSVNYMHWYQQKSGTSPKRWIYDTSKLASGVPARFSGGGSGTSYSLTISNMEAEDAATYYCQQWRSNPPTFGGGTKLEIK")
8.80

Quick check: pKd of ACI-7079-2506E2-Ab2 (antibody, V domains shown) VH: QVQLQQSGPELVRPGASVKISCKASGYAFSNSWMNWVKQRPGKGLEWIGRIFPGDGDTYYDGKFKGKVKLTTDKFSNTAYMQLRSLTSEDSAVYFCARWGGTNDEWFAHWGQGTLVTVSV VL: DIVLTQSPASLTVSLGQRATISCRASQSVSTSRNSYMHWYQQKPRQPPKLLIKYASNLESGVPARFSGSGSGADFTLNIHPVEEEDTATYYCQHSWDIPLTFGTGTKLELS ?
8.12

Values from patent US20250340623A1
